Assay Target: Follistatin (Homo sapiens) (UniProt P19883)
Sequence (P19883 whole entry, looked up): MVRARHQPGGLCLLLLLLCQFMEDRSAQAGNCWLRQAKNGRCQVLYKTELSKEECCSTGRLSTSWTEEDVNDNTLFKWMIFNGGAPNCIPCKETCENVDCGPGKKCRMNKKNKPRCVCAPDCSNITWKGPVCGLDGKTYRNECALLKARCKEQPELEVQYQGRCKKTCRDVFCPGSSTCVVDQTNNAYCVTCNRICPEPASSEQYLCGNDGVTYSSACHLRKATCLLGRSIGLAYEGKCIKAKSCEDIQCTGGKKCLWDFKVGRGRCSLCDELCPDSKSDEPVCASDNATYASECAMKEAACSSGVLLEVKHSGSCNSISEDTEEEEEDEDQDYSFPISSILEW
Assay Notes: follistatin binders on small-molecule microarrays, primary screen, biochemical, small-molecule microarray, 635/667 nm fluorescence (AID 1132)
Condition Notes: FST binding, 635 nm fluorescence, higher = more signal
Endpoint: composite z-score
Respond with the number and no other words.

Summary for this compound, COC(=O)[C@@]1(Cc2ccccc2)[C@H]2c3cc(C(=O)N4CCCC4)n(Cc4cc(F)cc5c4OCOC5)c3C[C@H]2CN1C(=O)c1ccccc1 : composite z-score is -0.0178

Summary for this compound, O=C1O[C@@H](c2ccccc2)[C@@H](c2ccccc2)N2[C@@H](c3ccc(O)cc3)[C@]3(C(=O)Nc4ccc(C#CCCO)cc43)[C@@H](C(=O)Nc3nc4ccccc4s3)[C@H]12 : composite z-score is 1.25

Summary for this compound, CC(=O)NCCCC[C@@H]1NC(=O)[C@@H]2C[C@H](C(=O)O)[C@H](c3ccc(O)cc3)N2C1=O : composite z-score is -0.893

Summary for this compound, O=c1cccc(-c2cccc(Cl)c2)o1 : composite z-score is -0.0992

Summary for this compound, CCOC(=O)[C@@H]1[C@@H]2C(=O)N(CC)C(=O)[C@@H]2C[C@@H]1Sc1ccccc1 : composite z-score is 0.329

Summary for this compound, COC(=O)[C@H](Cc1ccccc1)N1CC(/C=C/C2CC2)=C[C@@H]1[C@@H](O)Cc1ccccc1 : composite z-score is 0.958

Summary for this compound, CC1CC/C=C\[C@H]2OC34C=CCN(c5ccc6ccccc6c5)C(=O)[C@H]3N(C(CO)C(C)C)C(=O)[C@@H]4C2C(=O)O1 (stereo partly specified) : composite z-score is 0.136

Summary for this compound, C#CCNC(=O)[C@H](Cc1ccccc1)NC(=O)[C@@H](N=[N+]=[N-])C(C)C : composite z-score is 0.127

Summary for this compound, O=C1NC(=O)C2C1C=CC(C(O)c1c(F)cccc1Cl)N2Nc1ccccn1 (stereo unspecified) : composite z-score is 0.477

Summary for this compound, O=C1C[C@@](C(=O)NCC(F)(F)F)(c2ccc([N+](=O)[O-])cc2)[C@@H](c2ccc(CO)cc2)N1C1CCCCC1 : composite z-score is 1.47

Summary for this compound, C=CCNC(=O)[C@H]1[C@@H]2C(=O)O[C@@H](c3ccccc3)[C@@H](c3ccccc3)N2[C@@H](c2ccccc2OCCO)[C@]12C(=O)N(C(=O)OCCOC)c1ccc(C#CC3=CCCCC3)cc12 : composite z-score is 1.21

Summary for this compound, CC=CC(O)C1C=CC2C(=O)N(c3ccccc3)C(=O)C2N1Nc1ccccc1 (stereo unspecified) : composite z-score is 1.2

Summary for this compound, CC=CC(O)C1C=CC2C(=O)N(C)C(=O)C2N1Nc1ccc([N+](=O)[O-])cc1[N+](=O)[O-] (stereo unspecified) : composite z-score is -0.0096

Summary for this compound, O=C1c2ccccc2[C@@]2(Cc3ccccc3N(C3CC3)C2=O)[C@H](c2ccc(CO)cc2)N1C1CCCCC1 : composite z-score is -0.667

Summary for this compound, COC(=O)c1c(CC[C@@H](CO)NC(=O)N[C@H](Cn2cc(-c3ccccc3C)nn2)C(C)C)oc(C(C)=O)c1C(=O)OC : composite z-score is -0.505

Summary for this compound, C[n+]1ccc(CCCO)cc1 : composite z-score is 1.37

---

Assay Notes: COS7 lysate on small-molecule microarray, probe aHis, 635 nm (AID 1123);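 also: z-score combines 667nm fluorescence intensity with signal-to-noise per printed compound spot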
Condition Notes: COS7 cell lysate, fluorescence, higher = more signal
Endpoint: composite z-score
Respond with the number and no other words.

Summary for this molecule, CC(C)C(O)C1C=CC2C(=O)N(C)C(=O)C2N1Nc1ccccc1 (stereo not drawn) : composite z-score is 1.86

Summary for this molecule, [N-]=[N+]=NCc1ccccc1C[C@@]1(C(=O)N2CCCCC2)N=C(c2ccc(OCCCO)cc2)O[C@@H]1c1ccccc1N=[N+]=[N-] : composite z-score is 2.1

Summary for this molecule, NC(=O)N1C(=O)C2C(C1=O)C1C=C(c3ccc(CO)cc3)C2C(C2CC2)N1Cc1sc2ccccc2c1Cl (stereo not drawn) : composite z-score is 1.67

Summary for this molecule, CC(C)(C)OC(=O)CC[C@]1(C(=O)NCCN2CCOCC2)N=C(c2ccc(OCCCO)cc2)O[C@H]1c1ccccc1 : composite z-score is 2.28

Summary for this molecule, COc1cc2c(cc1OC)CN(C(=O)[C@@H]1[C@H]3C(=O)O[C@H](c4ccccc4)[C@H](c4ccccc4)N3[C@H](c3ccccc3OCCO)[C@@]13C(=O)Nc1ccc(C#CC4(O)CCCCCC4)cc13)CC2 : composite z-score is 1.48

Summary for this molecule, COC(=O)C1(Cc2ccccc2)C=C2C(=C(C(C)C)C(=O)C2C)CN1 (stereo not drawn) : composite z-score is 1.62

Summary for this molecule, O=C(N1CCCCC1)[C@@]1(Cc2ccccc2)COC(c2ccc(OCCCO)cc2)=N1 : composite z-score is 2.44

Summary for this molecule, C=C(C(=O)CC[C@H](OC(=O)c1cccnc1)c1ccc(CO)o1)C(C)C : composite z-score is 0.403

---

Assay Target: NADPH oxidase 4 (Homo sapiens) (UniProt Q9NPH5)
Sequence (Q9NPH5 whole entry, looked up): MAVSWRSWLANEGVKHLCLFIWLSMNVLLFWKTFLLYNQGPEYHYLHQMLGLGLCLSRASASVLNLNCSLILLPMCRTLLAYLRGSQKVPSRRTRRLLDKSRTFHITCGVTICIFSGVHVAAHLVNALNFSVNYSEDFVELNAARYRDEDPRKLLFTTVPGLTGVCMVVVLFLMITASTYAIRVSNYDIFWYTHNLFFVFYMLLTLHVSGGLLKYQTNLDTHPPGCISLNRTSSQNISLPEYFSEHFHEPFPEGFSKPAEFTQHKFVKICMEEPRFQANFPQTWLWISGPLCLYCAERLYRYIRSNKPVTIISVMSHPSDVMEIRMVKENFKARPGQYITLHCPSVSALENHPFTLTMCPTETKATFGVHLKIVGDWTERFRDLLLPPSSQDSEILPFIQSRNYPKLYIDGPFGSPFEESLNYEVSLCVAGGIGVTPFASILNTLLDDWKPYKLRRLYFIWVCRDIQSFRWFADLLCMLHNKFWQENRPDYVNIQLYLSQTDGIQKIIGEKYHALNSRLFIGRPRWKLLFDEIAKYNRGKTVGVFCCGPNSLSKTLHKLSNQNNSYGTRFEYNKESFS
Assay Notes: NOX4-dependent H2O2 signal modulators, primary screen, NOX inhibitor project, cell-based, HEK293-NOX4, tetracycline-induced, Amplex Red fluorescence (AID 1160)
Condition Notes: 45 min, higher = more signal, called active from +8 up or from −8 down
Field: z-score. Provide a value for each of the compounds that follow.
Respond with the number and no other words.

Summary for this compound, O=C(O)[C@H]1C[C@H]2C(=O)N3CCC[C@H]3C(=O)N2[C@H]1c1cccc(OCCO)c1 : z-score is -0.0548

Summary for this compound, COc1cc2c(cc1OC)CN(C(=O)[C@H]1[C@@H]3C(=O)O[C@@H](c4ccccc4)[C@@H](c4ccccc4)N3[C@@H](c3ccc(OCCO)cc3)[C@]13C(=O)Nc1ccc(C#CC4(O)CCCCCC4)cc13)CC2 : z-score is 0.882

Summary for this compound, C[N+](C)(C)CCCC[C@@H]1NC(=O)[C@@H]2C[C@H](C(=O)O)[C@H](c3ccc(O)cc3)N2C1=O : z-score is -0.223

Summary for this compound, CC(C)(C)OC(=O)CC[C@]1(C(=O)O)N=C(c2ccc(OCCCO)cc2)O[C@H]1c1ccccc1 : z-score is 0.228

Summary for this compound, O=C1NC(=O)C2C1C=CC(C(O)c1cc(C(F)(F)F)cc(C(F)(F)F)c1)N2Nc1ccc(Cl)cc1Cl (stereo not drawn) : z-score is -5.87

Summary for this compound, CN(C)CCCCNC(=O)[C@H]1C[C@H]2C(=O)N[C@@H](CCCCN(C)C)C(=O)N2[C@H]1c1cccc(OCCO)c1 : z-score is 0.756

Summary for this compound, Cc1ccc(S[C@]2(C(=O)NC3CC3)CC(=O)N(Cc3ccccc3Cl)[C@@H]2c2ccc(CO)cc2I)cc1 : z-score is -1.86

Summary for this compound, COCCCNC(=O)[C@@]1(Sc2ccc(C)cc2)CC(=O)N(C2Cc3ccccc3C2)[C@@H]1c1ccc(CO)cc1I : z-score is -1.15

---

Assay Target: Luciferin 4-monooxygenase (Photinus pyralis) (UniProt P08659)
Sequence (P08659 whole entry, looked up): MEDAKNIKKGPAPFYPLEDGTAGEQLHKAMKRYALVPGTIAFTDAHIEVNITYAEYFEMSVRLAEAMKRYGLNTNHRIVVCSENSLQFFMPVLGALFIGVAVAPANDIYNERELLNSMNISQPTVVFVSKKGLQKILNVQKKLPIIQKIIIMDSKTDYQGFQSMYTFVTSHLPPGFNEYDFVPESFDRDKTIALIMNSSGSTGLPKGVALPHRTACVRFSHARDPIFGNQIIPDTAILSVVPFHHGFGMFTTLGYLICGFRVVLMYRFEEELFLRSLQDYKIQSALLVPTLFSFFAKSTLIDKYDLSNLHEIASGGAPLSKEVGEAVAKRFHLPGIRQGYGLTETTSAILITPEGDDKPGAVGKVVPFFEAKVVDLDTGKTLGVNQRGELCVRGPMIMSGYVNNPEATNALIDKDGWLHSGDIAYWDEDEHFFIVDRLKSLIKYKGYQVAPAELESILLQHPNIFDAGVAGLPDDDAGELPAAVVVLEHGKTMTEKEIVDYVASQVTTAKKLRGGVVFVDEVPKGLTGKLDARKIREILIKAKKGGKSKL
Assay Notes: firefly luciferase enzyme inhibitors, primary screen, biochemical, luminescence, purified enzyme, 2006 set (AID 1141);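 also: cell-free assay with purified firefly luciferase at 100 ng per well in PBS; test concentration not given here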
Condition Notes: SteadyGlo luminescence, 30 min, higher = more signal, called active from +8 up or from −8 down
Label scheme for z-score: lower than -0.5 is not satisfied, -0.5 and above is satisfied.

Request: hey, is z-score for this one >= -0.5? CC(C)N1C(=O)[C@@]2(c3ccc([N+](=O)[O-])cc3)CC(=O)N(C3CCCCC3)[C@@H]2c2ccc(CO)cc21
Result: satisfied

Request: hey, is z-score for this one >= -0.5? C=CCN1Cc2ccccc2C[C@@]2(N=C(c3ccc(OCCCO)cc3)O[C@H]2c2ccccc2)C1=O
Result: not satisfied

Request: hey, is z-score for this one >= -0.5? CCOC(=O)C[C@H]1[C@H](OC(=O)c2ccc(-c3ccccc3)cc2)[C@@H](NC(=O)C2CCCCC2)c2cc(OCCCO)ccc2N1C(=O)c1ccccc1
Result: satisfied

Request: hey, is z-score for this one >= -0.5? O=C1O[C@@H](c2ccccc2)[C@@H](c2ccccc2)N2[C@@H](c3ccccc3OCCO)[C@]3(C(=O)Nc4ccc(C#CC5=CCCCC5)cc43)[C@@H](C(=O)NC[C@H](O)c3ccccc3)[C@H]12
Result: not satisfied

Request: hey, is z-score for this one >= -0.5? NC(=O)NCC#Cc1ccc2c(c1)[C@]1(C(=O)N2)[C@H](C(=O)Nc2nc3ccccc3s2)[C@H]2C(=O)O[C@H](c3ccccc3)[C@H](c3ccccc3)N2[C@@H]1c1ccc(O)cc1
Result: not satisfied

Request: hey, is z-score for this one >= -0.5? CN(C)CCCCNC(=O)[C@H]1C[C@H]2C(=O)N3CCC[C@H]3C(=O)N2[C@H]1c1ccc(O)cc1
Result: satisfied

Request: hey, is z-score for this one >= -0.5? O=C(O)[C@]1(Cc2ccccc2)N=C(c2ccc(OCCCO)cc2)O[C@@H]1c1ccccc1
Result: satisfied

Request: hey, is z-score for this one >= -0.5? CCCNC(=O)[C@@]1(c2ccc([N+](=O)[O-])cc2)CC(=O)N(C2CCCCC2)[C@@H]1c1ccc(CO)cc1I
Result: satisfied

Request: hey, is z-score for this one >= -0.5? CC(C)C(CO)N1C(=O)[C@]2(C)C3C(=O)OCCC/C=C\[C@H]3OC23C=CCN(c2ccc(Cl)cc2)C(=O)[C@@H]13 (some centres undefined)
Result: not satisfied

Request: hey, is z-score for this one >= -0.5? C[N+](C)(C)CCCC[C@@H]1NC(=O)[C@@H]2C[C@H](C(=O)O)[C@H](c3ccc(O)cc3)N2C1=O
Result: not satisfied

Request: hey, is z-score for this one >= -0.5? NCCCCCCNC(=O)[C@@H]1C[C@@H]2C(=O)N3CCC[C@H]3C(=O)N2[C@@H]1c1ccc(O)cc1
Result: satisfied

Request: hey, is z-score for this one >= -0.5? Cc1ccc(S[C@]2(C(=O)NCCN3CCOCC3)CC(=O)N(Cc3ccccc3C(F)(F)F)[C@@H]2c2ccc(CO)cc2I)cc1
Result: satisfied

Request: hey, is z-score for this one >= -0.5? Cc1ccc(S[C@]2(C(=O)NCC(F)(F)F)CC(=O)N(Cc3ccccc3)[C@@H]2c2ccc(CO)cc2)cc1
Result: satisfied
